Tested on: KCHSC: kochia (Kochia scoparia)
Test: Post-emergent Test III, herbicidal activity in wheat and barley
Type: in vivo
Settings: Bassia scoparia, post-emergence, 504 h; Table 9; 70 g ai/ha; post-emergent; 21 d; read-out: Visual Growth Reduction (%) 21 Days After Application KCHSC
reported metric: pest or weed control at 70 g/ha

Exam item: Short answer please: pest or weed control at 70 g/ha, KCHSC: kochia (Kochia scoparia), entry `Nc1cc(-c2ccc(Br)cc2)nc(C(=O)O)c1Cl`
Marked response: 95 to 100%

Exam item: Moving on to `Cc1c(-c2ccc(C(F)(F)F)c(F)c2)nc(C(=O)O)c(Cl)c1N`
Marked response: 0 to 29%

Exam item: Same again, this time with `COC(=O)c1nc(-c2ccc(I)cc2F)cc(N)c1Cl`
Marked response: 95 to 100%

Exam item: Proceed to `Nc1c(Cl)c(C(=O)O)nc(-c2ccc(C(F)(F)F)c(F)c2)c1Cl`
Marked response: 0 to 29%

Exam item: Next molecule: `COC(=O)c1nc(-c2ccc(Br)cc2F)nc(N)c1OC`
Marked response: 85 to 94%

Exam item: Follow-up item: `C#Cc1ccc(-c2nc(N)c(OC)c(C(=O)O)n2)cc1`
Marked response: 30 to 44%
